Organism: Rattus norvegicus
assay method text: DrugMatrix - Regimen: Daily Repeat
Format: toxicity, organism-based, Sprague-Dawley
Set-up: regimen Daily Repeat, gender Male, age 6-8 weeks
assay conditions: in vivo, po, 0 mg/kg, 72 h, tissue Plasma, route oral GAVAGE, dose level Control, time 3 day, vehicle .5 % CMC

[
  {
    "molecule": "CC(C)(C)NC(=O)[C@@H]1C[C@@H]2CCCC[C@@H]2CN1C[C@@H](O)[C@H](Cc1ccccc1)NC(=O)[C@H](CC(N)=O)NC(=O)c1ccc2ccccc2n1",
    "PHOSPHORUS": "12.25 mg/dL"
  },
  {
    "molecule": "CC1CC(OC(=O)C(O)c2ccccc2)CC(C)(C)C1 (centres undefined) [CYCLANDELATE]",
    "PHOSPHORUS": "10.08 mg/dL"
  },
  {
    "molecule": "OCCN(CCO)c1nc(N2CCCCC2)c2nc(N(CCO)CCO)nc(N3CCCCC3)c2n1 [DIPYRIDAMOLE]",
    "PHOSPHORUS": "10.08 mg/dL"
  },
  {
    "molecule": "C1CCC(C(CC2CCCCN2)C2CCCCC2)CC1 (centres undefined) [PERHEXILINE]",
    "PHOSPHORUS": "12.83 mg/dL"
  },
  {
    "molecule": "N=C(N)NCCN1CCCCCCC1 [GUANETHIDINE]",
    "PHOSPHORUS": "10.08 mg/dL"
  },
  {
    "molecule": "CCCN1C[C@H](CSC)C[C@@H]2c3cccc4[nH]cc(c34)C[C@H]21 [PERGOLIDE]",
    "PHOSPHORUS": "13.25 mg/dL"
  },
  {
    "molecule": "ClC(Cl)Br [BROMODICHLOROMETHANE]",
    "PHOSPHORUS": "11.5 mg/dL"
  },
  {
    "molecule": "O=C(CCCN1CC=C(n2c(=O)[nH]c3ccccc32)CC1)c1ccc(F)cc1 [DROPERIDOL]",
    "PHOSPHORUS": "11.23 mg/dL"
  },
  {
    "molecule": "CCOP(=S)(OCC)Oc1nc(Cl)c(Cl)cc1Cl [CHLORPYRIFOS]",
    "PHOSPHORUS": "12.55 mg/dL"
  },
  {
    "molecule": "CCn1cc(C(=O)O)c(=O)c2cc(F)c(N3CCNCC3)cc21 [NORFLOXACIN]",
    "PHOSPHORUS": "11.67 mg/dL"
  },
  {
    "molecule": "Cc1ccc(/N=C/N(C)/C=N/c2ccc(C)cc2C)c(C)c1 [AMITRAZ]",
    "PHOSPHORUS": "11.67 mg/dL"
  },
  {
    "molecule": "Nc1ccn([C@H]2CC[C@@H](CO)O2)c(=O)n1 [ZALCITABINE]",
    "PHOSPHORUS": "9.12 mg/dL"
  },
  {
    "molecule": "CN1CCN(CCCN2c3ccccc3Sc3ccc(Cl)cc32)CC1 [PROCHLORPERAZINE]",
    "PHOSPHORUS": "12.4 mg/dL"
  },
  {
    "molecule": "Cc1ccc2cc3c(ccc4ccccc43)c3c2c1CC3 [3-METHYLCHOLANTHRENE]",
    "PHOSPHORUS": "12.67 mg/dL"
  },
  {
    "molecule": "Cc1nc2n(c(=O)c1CCN1CCC(c3noc4cc(F)ccc34)CC1)CCCC2 [RISPERIDONE]",
    "PHOSPHORUS": "10.52 mg/dL"
  },
  {
    "molecule": "NC1=NC(=O)C(c2ccccc2)O1 (centres undefined) [PEMOLINE]",
    "PHOSPHORUS": "11.68 mg/dL"
  },
  {
    "molecule": "COc1nc(C)nc(Cl)c1N=C1NCCN1 [MOXONIDINE]",
    "PHOSPHORUS": "11.97 mg/dL"
  },
  {
    "molecule": "ClC(Br)Br [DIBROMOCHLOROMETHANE]",
    "PHOSPHORUS": "11.5 mg/dL"
  },
  {
    "molecule": "CCCCc1oc2ccccc2c1C(=O)c1cc(I)c(OCCN(CC)CC)c(I)c1 [AMIODARONE]",
    "PHOSPHORUS": "10.52 mg/dL"
  }
]
